Recorded values, source patent US20250179079A1.

- protocol text: Solubility (e.g., in phosphate buffered saline (PBS))
- Format: physicochemical
- stated conditions: aqueous buffer, Table D
recorded metric: log10 of solubility (log10 of the value in µM)
Please be aware that the numbers have been log10-transformed from solubility in µM.

Query: log10 of solubility; subject: Cn1ccc(-c2cc(Cl)c(Cl)c3nn4c(c23)CN(C(=O)CO)CC4)n1 [Comparative Example D, reference compound] 1.72

Query: log10 of solubility; subject: O=C(CO)N1CCn2nc3c(Cl)c(Cl)ccc3c2C1 [Comparative Example C, reference compound] 1.88

Query: log10 of solubility; subject: Cn1ccc(-c2cc(Cl)c(Cl)c3[nH]c4c(c23)CN(C(=O)CO)CC4)n1 [Comparative Example B, reference compound] 0.91

Query: log10 of solubility; subject: C[C@H]1c2c([nH]c3c(Cl)c(Cl)ccc23)CCN1C(=O)CO 1.62

Query: log10 of solubility; subject: O=C(CO)N1CCc2[nH]c3c(Cl)c(Cl)ccc3c2C1 0.30

###

- measured target: h-cGAS (Homo sapiens (Human))
- Sequence (Q8N884 whole entry): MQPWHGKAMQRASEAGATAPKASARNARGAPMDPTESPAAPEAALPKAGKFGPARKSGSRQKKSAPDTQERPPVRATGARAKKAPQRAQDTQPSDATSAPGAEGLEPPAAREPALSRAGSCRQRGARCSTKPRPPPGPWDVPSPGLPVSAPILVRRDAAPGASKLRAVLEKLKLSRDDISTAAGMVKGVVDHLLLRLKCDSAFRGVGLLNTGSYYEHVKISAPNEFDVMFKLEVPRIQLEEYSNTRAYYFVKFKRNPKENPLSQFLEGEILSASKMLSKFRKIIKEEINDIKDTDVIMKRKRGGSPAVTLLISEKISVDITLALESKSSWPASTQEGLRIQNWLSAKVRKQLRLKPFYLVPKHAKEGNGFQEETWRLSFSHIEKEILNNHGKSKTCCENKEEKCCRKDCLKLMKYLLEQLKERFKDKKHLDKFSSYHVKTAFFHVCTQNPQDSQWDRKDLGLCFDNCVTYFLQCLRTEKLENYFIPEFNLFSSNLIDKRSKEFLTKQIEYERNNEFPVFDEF
- protocol text: hcGAS Kinase-Glo assay
- Format: biochemical
- stated conditions: Table C, raw data in parentheses; read-out: hcGAS IC50
pIC50: −log10 of the molar value.
Each record's class is read off its pIC50 using these ranges: bottom bin = under 6, middle bin = from 6 up to 7, top bin = 7 and over

Class for NCC(=O)N1C2COCC1c1c([nH]c3c(Cl)c(Cl)ccc13)C2 (stereo not drawn) [Compound 66] ? middle bin

Class for C[C@H]1c2c([nH]c3c(Cl)c(Cl)ccc23)CCN1C(=O)c1ncc(C#N)[nH]1 (single isomer, unassigned) [95B*] ? middle bin

Class for CC1c2c([nH]c3c(Cl)c(Cl)ccc23)CCN1C(=O)CN (racemic) [Rac-51] ? top bin

Class for COc1cnc(C(=O)N2CCc3[nH]c4c(Cl)c(Cl)cc(OC)c4c3C2C)nc1 (racemic) [Rac-132] ? top bin

Class for NNC(=O)N1CCc2[nH]c3c(Cl)c(Cl)ccc3c2C1 [Compound 59] ? middle bin

Class for COCCOCn1c2c(c3ccc(Cl)c(Cl)c31)CN(C(=O)c1ncc(OC)cn1)CC2 [Compound 23] ? bottom bin

Class for CC1c2c([nH]c3c(Cl)c(Cl)ccc23)CCN1C(=O)c1ncc(N(C)CCN(C)C)cn1 (racemic) [Rac-47] ? top bin

Class for CC1c2c([nH]c3c(Cl)c(Cl)ccc23)CCN1C(=O)c1ncc(N2CCN(C)CC2)cn1 (racemic) [Rac-48] ? top bin

Class for C[C@@H]1c2c3c(-c4ccn(C)n4)cc(Cl)c(Cl)c3nn2CCN1C(=O)CO (single isomer, unassigned) [61A*] ? bottom bin

Class for COc1cnc(C(=O)N2CCc3[nH]c4c(Cl)c(Cl)ccc4c3C2C)nc1OC (racemic) [Rac-83] ? middle bin

###

- measured target: UniProtKB Q8N884
- protocol text: hcGAS Kinase-Glo assay
- Format: biochemical
- stated conditions: Table C, IC50 range designation; read-out: hcGAS IC50
Would you kindly list IC50 for each of these molecules?

Query: IC50; subject: C[C@@H]1c2c3c(-c4ccn(C)n4)cc(Cl)c(Cl)c3nn2CCN1C(=O)CO (single isomer, unassigned) [61A*] > 5 µM

Query: IC50; subject: COCCOCn1c2c(c3ccc(Cl)c(Cl)c31)CN(C(=O)c1ncc(OC)cn1)CC2 [Compound 23] 1 to 5 µM

Query: IC50; subject: Cn1cnc(C(=O)N2CCc3[nH]c4c(Cl)c(Cl)ccc4c3C2)n1 [Compound 9] 1 to 5 µM

Query: IC50; subject: NCC(=O)N1Cc2[nH]c3c(Cl)c(Cl)ccc3c2C1 [Compound 65] 0.5 to 1 µM

Query: IC50; subject: NNC(=O)N1CCc2[nH]c3c(Cl)c(Cl)ccc3c2C1 [Compound 59] 0.1 to 0.5 µM

Query: IC50; subject: Nc1ccnc(C(=O)N2CCc3[nH]c4c(Cl)c(Cl)ccc4c3C2)n1 [Compound 14] 1 to 5 µM

Query: IC50; subject: COc1cnc(C(=O)N2CCn3nc4c(Cl)c(Cl)ccc4c3[C@@H]2C)nc1 (single isomer, unassigned) [52B*] < 0.1 µM

Query: IC50; subject: NCC(=O)N1C2COCC1c1c([nH]c3c(Cl)c(Cl)ccc13)C2 (centres unmarked) [Compound 66] 0.1 to 0.5 µM
